Assignment: determine reported CC50 at 48 h for the given compounds.
- Measurement Protocol: Cytotoxicity against MDCK cells assessed reduction in cell viability after 48 hrs by MTT assay
- Format: cell-based, Canis lupus familiaris
- Protocol Conditions: dog, read-out: CTD50
Give bare numbers, in µM.

Solved cases (3 shown):
CC(=O)C1=C(O)C=C2O[C@]34O[C@@]3(C(C)=O)C(=O)C(C)=C(O)[C@]4(O)[C@@]2(C)C1=O; 234
COc1ccc(/C=C/C(=O)c2c(O)c(C)c(OC)c3c2OC2=Cc4c(c(C)nn4-c4ccccc4)[C@@H](O)[C@@]23C)c(OC)c1OC; 279
COc1cccc(/C=C/C(=O)c2c(O)c(C)c(OC)c3c2OC2=Cc4c(c(C)nn4-c4ccccc4)[C@H](O)[C@]23C)c1OC; 862

The record that follows has no CC50 at 48 h shown yet.
Record request: CC50 at 48 h value, item CSCC[C@H](N/C(C)=C1\C(=O)C=C2Oc3c(C(C)=O)c(O)c(C)c(O)c3[C@@]2(C)C1=O)C(=O)O
21.1
